Test system: 616215-338-R-J1-PDC spheroids with HUVEC/MSC, viability;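 also: spheroids exposed to agents for seven days before the viability read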
assay: Anticancer human tumor 616215-338-R-J1-PDC patient-derived colon adenocarcinoma cell line growth inhibition [PI3K]
measurementParameters: second compound 1 µM; first compound 0.1 µM; stronger effect = lower value
Binary call on viability, T/C with cut-off 90%: strictly below means True, and equality or higher means False.

| compound | class |
| --- | --- |
| CC(Cn1ccc(-c2ccc(C#N)c(Cl)c2)n1)NC(=O)c1cc(C(C)O)[nH]n1 (stereo not given) + COc1c(OCCCN2CCOCC2)ccc2c3n(c(=NC(=O)c4cnc(N)nc4)nc12)CCN3 | True |

[Q] For this compound, is viability, T/C lower than 90%? Cn1nccc1Nc1nccc(-c2ccn(C(CO)c3ccc(Cl)c(F)c3)c(=O)c2)n1 (stereo not given) + CC(Nc1ccc2c(c1)OCCn1cc(N3C(=O)OCC3C(F)F)nc1-2)C(N)=O
[A] False

[Q] For this compound, is viability, T/C lower than 90%? CC1(C)CCC(CN2CCN(c3ccc(C(=O)NS(=O)(=O)c4ccc(NCC5CCOCC5)c([N+](=O)[O-])c4)c(Oc4cnc5[nH]ccc5c4)c3)CC2)=C(c2ccc(Cl)cc2)C1 + CC(Nc1ccc2c(c1)OCCn1cc(N3C(=O)OCC3C(F)F)nc1-2)C(N)=O
[A] False

[Q] For this compound, is viability, T/C lower than 90%? Cn1nccc1Nc1nccc(-c2ccn(C(CO)c3ccc(Cl)c(F)c3)c(=O)c2)n1 (stereo not given) + COc1c(OCCCN2CCOCC2)ccc2c3n(c(=NC(=O)c4cnc(N)nc4)nc12)CCN3
[A] True
